Target: T1, human myostatin (human, UniProt O14793 267-375, biotinylated in selections and radioactive assays (site not stated))
T1 construct: Phage ELISA used both unbiotinylated and biotinylated myostatin; also called biotinylated human myostatin; myostatin-biotin
T1 sequence (looked up): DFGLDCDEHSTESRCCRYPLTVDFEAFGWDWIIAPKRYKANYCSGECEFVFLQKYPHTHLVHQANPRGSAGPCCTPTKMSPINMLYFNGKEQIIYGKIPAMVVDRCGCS
Experiment: radioactive equilibrium binding assay
// reported B max per item
Measurement Label: B max (%)

- 39908-A1 (designed binder, group M3-A50; ΔS82, M83R; also called M02 (clone ID)) MTIPEIIIKVRGTQVVGSDMTVIVEFSNPFKETLRNVWVHLDGPGVTRPMKKMFCEIRPNSIVQWEEVVRPWVSGHRKLIARCSLSPWHVYGELDVQIQRRDYKDDDDK: 50.2
- 39908-A3 (designed binder, group M3-A50; ΔS82, M83R; also called M09 (clone ID)) MTIPEIIIKVRGTQVVGSDMTVIVEFTNPFKETLRSVWVHLDGPGVTRPMKKMFCEIRPNRIVQWEEVVRPWVSGHRKLIARCSLSPWHVYGELDVQIQRRDYKDDDDK: 57.2
- 45927-B3 (designed binder, group M1-Aext; extended FG loop; also called Mext (clone ID)) MTIPEIIIKVRGTQVVGSDMTVIVEFTNPLKETLRNVWVHLDGPGVTRPMKKMFLKIPGCSTVQWEEVVRPWVSGHRKLIASMSMLGLPFSLRFIPVYGELDVQIQRRDYKDDDDK: 50.7
- 39908-A2 (designed binder, group M3-A50; ΔS82, M83R; also called M03 (clone ID)) MTIPEIIIKVRGTQVVGSDMTVIVEFTNPFKETLRNVWVHLDGPGVTRPMKKMFRDIRPKTKVQWEEVVRPWVSGHRKLIARCSLSPWHVYGELDVQIQRRDYKDDDDK: 68.5
- 39973-C10 (designed binder, group M1-A) MTIPEIIIKVRGTQVVGSDMTVIVEFTNPLKETLRNVWVHLDGPGVTRPMKKMFPTISRFKRVQWEEVVRPWVSGHRKLIASMPQLQHLHVYGELDVQIQRRDYKDDDDK: 72
- 39633-E4 (designed binder, group M2-A50; also called M019 (clone ID)) MTIPEIIIKVRGTQVVGSDMTVIVEFSNPFKETLRNVWVHLDGPGVTRPMKKMFSEIRPDSTVQWEEVVRPWVSGHRKLIASMPSLLHLHVYGELDVQIQRRDYKDDDDK: 60
- 39633-D6 (designed binder, group M3-A50; ΔS82, M83R; also called M020 (clone ID)) MTIPEIIIKVRGTQVVGSDMTVIVEFTNPFKETLRNVWVHLDGPGVTRPMKKMFCEIRPNSIVQWEEVVRPWVSGHRKLIARCSLSPWHVYGELDVQIQRRDYKDDDDK: 79.6
- 39885-B5 (F26V) (designed binder, group M1-A; F26V; also called M2-1 (clone ID)) MTIPEIIIKVRGTQVVGSDMTVIVEVTNPLKETLRNVWVHLDGPGVTRPMKKMFPAIPMNHKVQWEEVVRPWVSGHRKLIASMPQLFHIHVYGELDVQIQRRDYKDDDDK: 72.2
- 39888-B7 (designed binder, group M3-A) MTIPEIIIKVRGTQVVGSDMTVIVEFTNPLKETLRNVWVHLDGPGVTRPMKKMFPAIPMNHKVQWEEVVRPWVSGHRKLIASMNSSSNQHVYGELDVQIQRRDYKDDDDK: 1.19
- 45927-A12 (designed binder, group M3-Aext) MTIPEIIIKVRGTQVVGSDMTVIVEFTNPLRVSEQTLRNVWVHLDGLGVTRPMKKMFGGIRVHSTVQWEEVVRPWVSGHRKLIASMSYVAEYGEWTHYSVYGELDVQIQRRDYKDDDDK: 3.08
- 39633-G6 (designed binder, group M3-A50; FG loop printed -TLRPW (one residue deleted), no scaffold mutation printed; also called M18 (clone ID)) MTIPEIIIKVRGTQVVGSDMTVIVEFTNPFKETLRSVWVHLDGPGVTRPMKKMFREIPPKTTVQWEEVVRPWVSGHRKLIASMTLRPWHVYGELDVQIQRRDYKDDDDK: 75.1
- 39973-G3 (designed binder, group M3-A) MTIPEIIIKVRGTQVVGSDMTVIVEFTNPLKETLRNVWVHLDGPGVTRPMKKMFEQIRESEYVQWEEVVRPWVSGHRKLIASMLTETRPHVYGELDVQIQRRDYKDDDDK: 1.81
